Hi there, I'd appreciate the recorded inhibition at 10 µM for every entry that follows.
# tgt: UniProtKB Q06187
# Sequence (Q06187 402-655 limits assumed): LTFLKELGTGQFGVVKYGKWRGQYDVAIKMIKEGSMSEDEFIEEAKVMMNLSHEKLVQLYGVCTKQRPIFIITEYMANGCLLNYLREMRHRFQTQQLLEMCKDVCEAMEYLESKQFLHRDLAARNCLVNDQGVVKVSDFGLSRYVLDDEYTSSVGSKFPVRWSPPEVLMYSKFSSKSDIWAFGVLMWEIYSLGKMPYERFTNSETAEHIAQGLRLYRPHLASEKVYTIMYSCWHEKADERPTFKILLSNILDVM
# test.protocol: biochemical
# stated.conditions: read-out: BTK inhibition (%), 0.75 uM BTK, […] probe 3l, 15 min preincubation
Give bare numbers, in %.

For every record below, what is its inhibition at 10 µM?
1. Cc1ccc2c(=O)c3cccc(CC(=O)O)c3oc2c1C
2. Cc1noc(NS(=O)(=O)c2ccc(N)cc2)c1C
3. CC(=O)O[C@@H](C[C@@H](C)C1=C2C[C@H](O)[C@H]3[C@@]4(C)CCC(=O)C(C)(C)[C@@H]4CC[C@]3(C)[C@@]2(C)CC1)[C@H]1OC1(C)C

A:
[-7.8, 10.9, -4.6]

For every record below, what is its inhibition at 10 µM?
1. CC(C)=CCC[C@](C)(O[C@@H]1O[C@H](CO)[C@@H](O)[C@H](O)[C@H]1O)[C@H]1CC[C@]2(C)[C@@H]1[C@H](O)C[C@@H]1[C@@]3(C)CC[C@H](O)C(C)(C)[C@@H]3[C@@H](O[C@@H]3O[C@H](CO)[C@@H](O)[C@H](O)[C@H]3O)C[C@]12C
2. Cc1cn([C@H]2O[C@@H](CO)[C@H](O)[C@H]2F)c(=O)[nH]c1=O
3. O=C(Nc1cccc(C2=NCCN2)c1)Nc1cccc(C2=NCCN2)c1
4. NC(=O)c1cccc(N)c1
5. NC(=O)c1ncn([C@@H]2O[C@H](CO)[C@@H](O)[C@H]2O)c1O

A:
14
23.3
-17
-3.9
0.9
